Where a name gives a salt, the structure may show the parent alone.
# human clotting factor VIIa (Homo sapiens, UniProt P08709): IC50 values follow
# Sequence (P08709 213-466 limits assumed): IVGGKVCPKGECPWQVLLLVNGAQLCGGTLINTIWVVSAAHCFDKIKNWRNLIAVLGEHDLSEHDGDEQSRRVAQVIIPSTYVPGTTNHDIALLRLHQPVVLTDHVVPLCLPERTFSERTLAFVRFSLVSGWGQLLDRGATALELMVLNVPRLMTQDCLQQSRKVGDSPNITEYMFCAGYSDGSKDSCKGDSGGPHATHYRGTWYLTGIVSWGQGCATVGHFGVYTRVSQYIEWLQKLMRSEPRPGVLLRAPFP
# Sequence (P08709 61-212 limits assumed): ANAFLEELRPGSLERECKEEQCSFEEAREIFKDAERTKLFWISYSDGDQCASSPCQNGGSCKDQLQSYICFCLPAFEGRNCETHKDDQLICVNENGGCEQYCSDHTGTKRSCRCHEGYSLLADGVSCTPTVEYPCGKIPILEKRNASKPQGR
# Sequence (P13726 33-295 partner): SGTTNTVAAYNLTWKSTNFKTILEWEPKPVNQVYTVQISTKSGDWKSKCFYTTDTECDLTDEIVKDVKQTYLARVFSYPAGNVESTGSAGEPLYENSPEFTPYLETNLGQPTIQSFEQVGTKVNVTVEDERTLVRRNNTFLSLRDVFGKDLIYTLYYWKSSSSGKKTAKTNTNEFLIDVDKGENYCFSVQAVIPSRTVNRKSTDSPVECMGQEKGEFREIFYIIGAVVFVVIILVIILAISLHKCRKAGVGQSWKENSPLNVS
quantityKind: IC50 (nM)

| molecule | IC50 (nM) |
| --- | --- |
| CCOc1cc(C(Nc2ccc(C(=N)N)cc2)c2nn(-c3ncccn3)c(=O)[nH]2)ccc1OC (racemic) [Example 17, acetate] | 7.5 |
| COc1cc(C(Nc2ccc(C(=N)N)cc2)c2nn(-c3nc[nH]c3C(=O)O)c(=O)[nH]2)c(F)c2c1OCCO2 (single isomer, unassigned) [Example 191, trifluoroacetate] | 9.3 |
| COc1cc(OC)c(F)c(C(Nc2ccc(C(=N)N)cc2)c2nn(-c3cccnn3)c(=O)[nH]2)c1 (racemic) [Example 145, acetate] | 8.7 |

P = COc1cc(C(Nc2ccc(C(=N)N)cc2)c2nn(-c3ncccn3)c(=O)[nH]2)c(F)c2c1OCCO2 (racemic) [Example 41, acetate]
Q = CCOc1cc(C(Nc2ccc(C(=N)N)cc2)c2nn(-c3ncccc3C)c(=O)[nH]2)ccc1OCC(=O)NC (stereo not shown) [Example 127, acetate]
Q: Between the entries labeled P and Q , whose measured IC50 is lower? Response format: the label of the selected entry.
Ans: P
(P: 6.4 nM, Q: 9.3 nM)

Origin of the recorded values: patent US7816522B2
